Origin of measurements: ChEMBL document CHEMBL3988442

Target: Sialic acid-binding Ig-like lectin 9 (Homo sapiens) (UniProt Q9Y336)
Sequence (Q9Y336 whole entry): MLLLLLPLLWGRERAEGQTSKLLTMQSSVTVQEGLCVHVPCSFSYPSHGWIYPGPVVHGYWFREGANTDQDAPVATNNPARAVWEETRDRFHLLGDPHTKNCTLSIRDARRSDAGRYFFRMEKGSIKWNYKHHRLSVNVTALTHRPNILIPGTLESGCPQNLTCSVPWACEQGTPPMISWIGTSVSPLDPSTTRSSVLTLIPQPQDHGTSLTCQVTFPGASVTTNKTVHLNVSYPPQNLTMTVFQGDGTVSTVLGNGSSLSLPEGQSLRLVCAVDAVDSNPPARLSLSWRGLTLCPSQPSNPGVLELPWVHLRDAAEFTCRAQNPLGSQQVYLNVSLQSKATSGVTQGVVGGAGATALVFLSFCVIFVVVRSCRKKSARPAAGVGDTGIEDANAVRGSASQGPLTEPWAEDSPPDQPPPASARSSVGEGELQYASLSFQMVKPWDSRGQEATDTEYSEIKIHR
Experiment: Hs-Siglec9 ALPHAscreen SOP 20170721
Design: scale not given: direction of the effect not stated beside the values
Conditions: 10 µM
The compounds listed here are annotated with their Percent Effect.
EXPERIMENTAL READOUT: Percent Effect (%)

{"columns": ["COMPOUND", "OUTPUT UNIT", "VALUE OBSERVED"],
 "data": [
  ["Cc1cc(NC(=O)NCc2cccnc2OC(C)C)n(C)n1", "%", 3.66],
  ["CCCc1cc(C(=O)N2CCCC(n3ccnc3C)C2)[nH]n1 (centres undefined)", "%", 9.52],
  ["CNC(=O)N1CCc2cc(C(=O)N(C)C)c(NCC3CC3)nc2CC1", "%", 2.07],
  ["Cc1cnn(CC2CCCN2C(=O)CCc2c(C)noc2Cl)c1 (centres undefined)", "%", -4.15],
  ["CC(C)Cc1ccc(S(=O)(=O)Nc2ccc(=O)n(C)c2)cc1", "%", -2.55],
  ["Cc1ccc2oc(C(=O)N3CCCC(c4noc(C)n4)C3)cc2n1 (centres undefined)", "%", 1.38],
  ["O=C(NCC1CC1)C1CN(C(=O)c2ccncc2)CC12CCOCC2 (centres undefined)", "%", -4.66],
  ["Cc1noc(C)c1CNC(=O)N1CCN(Cc2cscn2)CC1", "%", 9.82],
  ["CCN(CC)C(CNC(=O)c1ccc(S(C)(=O)=O)cc1)c1ccco1 (centres undefined)", "%", -6.01],
  ["COc1cc(C)c(S(=O)(=O)NCc2cccnc2N(C)C)c(C)c1", "%", -2.16],
  ["CN1CCN(c2ncccc2CNc2ncccc2C#N)CC1", "%", 20.8],
  ["Cc1ccc(CN(C)CC(=O)NC2(C)CCS(=O)(=O)C2)cc1 (centres undefined)", "%", -1.85],
  ["CN(C)C(=O)COC[C@]12COC[C@H]1CN(Cc1ccoc1)C2", "%", 10.2],
  ["CNS(=O)(=O)CCCN1CCCC1c1noc(C2CC2)n1 (centres undefined)", "%", -2.31],
  ["Cc1cccc(CN2C[C@@H]3COC[C@]3(CNC(=O)c3ccsc3)C2)n1", "%", -4.17],
  ["CC(C)c1cc(NC(=O)c2ccc(C(=O)NC(C)(C)C)cc2)[nH]n1", "%", -4.38],
  ["CS(=O)(=O)c1ccc(NC(=O)NCc2ccc3c(c2)CCC3)cn1", "%", -3.31],
  ["COc1c(C2CCCN2C(=O)c2ccnc(N(C)C)c2)c(C)nn1C (centres undefined)", "%", 13.2],
  ["CCCNCc1cc2c(C)cc(C)cc2n2c(=O)n(C)nc12", "%", 0.45],
  ["COc1cc(CN(C)C(=O)Cc2c(C)nn(C)c2C)ccc1OC(F)F", "%", -7.7],
  ["CC(C)OCCCNC(=O)CS(=O)(=O)Cc1ccc(Cl)c(Cl)c1", "%", -7.16],
  ["Cc1cnn(CCNCc2ccc(F)cc2Cl)c1", "%", 10.9],
  ["COc1ccc(NC(=O)CCc2c(C)nc3cc(O)nn3c2C)cn1", "%", 9.4],
  ["CN(C)CC1CN(c2ccc(C#N)cn2)CCO1 (centres undefined)", "%", 5.48],
  ["CNC(=O)C1Cn2ccnc2C2(CCN(Cc3cccnc3)CC2)O1 (centres undefined)", "%", 2.7],
  ["CCC(=O)NC1CCN(c2cccc(CC)c2)CC1", "%", -4.76],
  ["COc1ccccc1CNC(=O)N1CCCC(c2nncn2C)C1 (centres undefined)", "%", 4.78],
  ["Cc1nc(C)c(CC(=O)Nc2ncc(C)s2)c(=O)[nH]1", "%", 14.1],
  ["c1cncc(C2COC3(CCN(CC4CC4)CC3)C2)c1 (centres undefined)", "%", -4.23],
  ["Cc1cc(C)n(CC2CCCN2CCCS(=O)(=O)N(C)C)n1 (centres undefined)", "%", 14],
  ["CCn1nc2c(cc1=O)CN(CC(=O)Nc1nc(C)c(C)s1)CC2", "%", 5.55],
  ["CS(=O)(=O)N1CCN(CC(O)COc2ccc(F)cc2)CC1 (centres undefined)", "%", -2.66],
  ["COCc1nc(CNC2CCSCC2)no1", "%", 1.55],
  ["Cn1cc(C(=O)N2CC[C@@H]3[C@@H]2CCN3Cc2cccc(F)c2)cn1", "%", -0.0749],
  ["COc1ccc2c(c1)CCCN2Cc1nc2c(cnn2C)c(=O)[nH]1", "%", -0.208],
  ["CS(=O)(=O)N1CC[C@H]2C[C@@H](C(=O)N3CCOCC3)O[C@@H]2C1", "%", 4.61],
  ["c1ccc(Cc2noc(CNC3CCc4ncnn4C3)n2)cc1 (centres undefined)", "%", 4.98],
  ["NC(=O)Cn1cc(NC(=O)N2CCCC2)cn1", "%", -7.88],
  ["COc1ncc(-c2nccn2CCN(C)C)cn1", "%", 1.15]
]}
